These measurements were taken from the supplement of paper PMC9732359.

experiment: protein stability index of a GFP-peptide fusion (yeast GPS) (PSI 1-4); higher = more stable; sorted into four equal gates, so the index is relative within each strain; conditions: pdr5∆
property: protein stability index
Reply with the value as a number alone.

[
  {
    "sequence": "SVDLEKLAFGLTKLNED [TAF14]",
    "protein stability index": 3.45
  },
  {
    "sequence": "GQCRTELEGSFNKSAEL [YCS4]",
    "protein stability index": 2.51
  },
  {
    "sequence": "RPLKLERGFACIPLVGI [FAS1]",
    "protein stability index": 1.73
  },
  {
    "sequence": "VISMFVLPIFTTVFFSR [YML031W/NDC1]",
    "protein stability index": 1.16
  },
  {
    "sequence": "SALELVGQLNKVVDQLF [RPN6]",
    "protein stability index": 2.98
  },
  {
    "sequence": "SVRKFLEIALFKYRKAR [RPO31]",
    "protein stability index": 1.18
  }
]

Next up:
INPUT: Which protein stability index value is on record for DDFLSKKRKAGRPRGRP [SNF2] ?
OUTPUT: 3.1
